Target: T1, extracellular domain of activin receptor type IIB (ActRIIBecd), biotinylated (Homo sapiens (Human), UniProt Q13705 27-117, amino-biotinylated with amine-PEG3-Biotin)
T1 construct: immobilised on a streptavidin-coated sensor chip; also called biotinylated ActRIIBecd; extracellular domain of ActRIIB
T1 sequence: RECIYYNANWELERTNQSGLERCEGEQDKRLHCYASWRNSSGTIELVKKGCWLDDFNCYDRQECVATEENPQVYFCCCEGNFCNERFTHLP
Experiment: BIAcore SPR, biotinylated ActRIIBecd on chip; SD ±13.69 nM
metric: Kd (nM)
Please respond with the number in nM and leave the unit unwritten.

Looking up NSKDPKACCVPTELSAPSPLYLDENEKPVLKNYQDMVVHGCGCR [Clone No. 19 domain (ActRIIBecd-associated polypeptide)] , I found its Kd recorded as 40.1
